These compounds were tested on UniProt:Q9ULC5; Kd is the recorded read-out.
Sequence (Q9ULC5 whole entry): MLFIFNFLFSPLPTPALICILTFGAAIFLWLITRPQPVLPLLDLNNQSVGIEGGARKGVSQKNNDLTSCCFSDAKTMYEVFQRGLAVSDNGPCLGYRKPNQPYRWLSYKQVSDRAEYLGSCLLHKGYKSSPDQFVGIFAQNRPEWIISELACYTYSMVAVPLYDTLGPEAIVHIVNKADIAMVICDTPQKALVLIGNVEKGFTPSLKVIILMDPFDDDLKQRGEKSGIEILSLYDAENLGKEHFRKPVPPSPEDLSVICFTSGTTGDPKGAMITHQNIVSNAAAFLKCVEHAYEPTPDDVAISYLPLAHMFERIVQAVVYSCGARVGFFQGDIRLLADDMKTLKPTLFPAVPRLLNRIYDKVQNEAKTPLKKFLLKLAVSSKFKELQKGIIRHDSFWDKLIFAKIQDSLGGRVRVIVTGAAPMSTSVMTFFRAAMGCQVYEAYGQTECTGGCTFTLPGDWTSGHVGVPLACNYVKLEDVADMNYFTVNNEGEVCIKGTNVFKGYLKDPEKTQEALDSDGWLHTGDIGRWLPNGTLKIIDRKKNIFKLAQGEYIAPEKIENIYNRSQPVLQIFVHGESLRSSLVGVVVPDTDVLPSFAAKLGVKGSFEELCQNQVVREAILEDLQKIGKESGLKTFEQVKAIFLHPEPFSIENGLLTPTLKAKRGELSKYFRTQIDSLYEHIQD
Active and inactive are the calls of the source.

compound | result type | value measured
COc1ncc(-c2ccc3nccc(-c4ccnnc4)c3c2)cc1NS(=O)(=O)c1ccc(F)cc1F | Kd | > 30 µM (inactive)

Inquiry: For Cn1cnc2c(F)c(Nc3ccc(Br)cc3F)c(C(=O)NOCCO)cc21 , what is its reported Kd?
Reply text: > 30 µM (inactive)

Inquiry: Now this one: CC(=O)NCC(=O)N1[C@@H]2CC[C@H]1c1ccc(Nc3ncc(C(F)(F)F)c(NC4CCC4)n3)cc12
Reply text: > 30 µM (inactive)

Inquiry: Now this one: CCNC(=O)C#Cc1ccc2c(c1)NC(=O)/C2=C(\Nc1ccc(CN(C)C)cc1)c1ccccc1
Reply text: > 30 µM (inactive)

Inquiry: Now this one: N#CC1(c2ccc(NC(=O)c3cccnc3NCc3ccncc3)cc2)CCCC1
Reply text: > 30 µM (inactive)

Inquiry: Now this one: C[C@@H](Oc1cc(-n2cnc3ccc(CN4CCN(C)CC4)cc32)sc1C(N)=O)c1ccccc1C(F)(F)F
Reply text: > 30 µM (inactive)

Inquiry: Now this one: Cc1[nH]c(/C=C2\C(=O)Nc3ccccc32)c(C)c1CCC(=O)O [ORANTINIB]
Reply text: > 30 µM (inactive)

Inquiry: Now this one: O=C(Nc1c[nH]nc1-c1nc2cc(CN3CCOCC3)ccc2[nH]1)NC1CC1
Reply text: > 30 µM (inactive)
